Test system: A. baumannii NMI 3658/17
Type: cell-based, Acinetobacter baumannii
Details: NMI 3658/17, 20 h
Description: MIC values of the peptidomimetics were evaluated by using the modified Hancock lab protocol in non-binding polystyrene microtiter plates. Bacterial suspensions of ~5 × 10^5 CFU/mL in Mueller-Hinton broth (Difco, Sparks, MD, USA) were prepared with Mg^2+ and Ca^2+ concentrations of 4 mg/L each. […] Following incubation for 20 h of the covered plates at 35 °C (±2 °C) with circular shaking at 180 rpm, the MICs were read.
PARAMETER: MIC, A. baumannii NMI 3658/17

INSERT INTO measurements (molecule, assay_value) VALUES
  ('NCCCC[C@H](NC(=O)CCN(Cc1ccc(F)cc1)C(=O)[C@H](CCCCN)NC(=O)CCN(Cc1ccc(F)cc1)C(=O)[C@H](CCCCN)NC(=O)COCCNC(=O)CCN(Cc1ccc(F)cc1)C(=O)[C@H](CCCCN)NC(=O)CCN(Cc1ccc(F)cc1)C(=O)[C@H](CCCCN)NC(=O)CCN(Cc1ccc(F)cc1)C(=O)[C@@H](N)CCCCN)C(=O)N(CCC(N)=O)Cc1ccc(F)cc1 [Compound 6, H-[X]3-sPEG1-[X]3-NH2]', '4 µg/mL'),
  ('NCCCC[C@H](NC(=O)CCN(Cc1ccc(F)cc1)C(=O)[C@H](CCCCN)NC(=O)COCCOCCNC(=O)CCN(Cc1ccc(F)cc1)C(=O)[C@H](CCCCN)NC(=O)CCN(Cc1ccc(F)cc1)C(=O)[C@H](CCCCN)NC(=O)COCCOCCNC(=O)CCN(Cc1ccc(F)cc1)C(=O)[C@H](CCCCN)NC(=O)CCN(Cc1ccc(F)cc1)C(=O)[C@@H](N)CCCCN)C(=O)N(CCC(N)=O)Cc1ccc(F)cc1 [Compound 16, H-[X]2-sPEG2-[X]2-sPEG2-[X]2-NH2]', '4 µg/mL');

====

System: A. baumannii NMI 3658/17
Format: cell-based, Acinetobacter baumannii
Conditions: NMI 3658/17, 20 h
Catalogue of MIC, A. baumannii NMI 3658/17 readings, one per entry.
PARAMETER: MIC, A. baumannii NMI 3658/17 (µg/mL)

INSERT INTO measurements (compound, system_name, assay_value) VALUES
  ('NCCCC[C@H](NC(=O)CCN(Cc1ccc(F)cc1)C(=O)[C@H](CCCCN)NC(=O)CCN(Cc1ccc(F)cc1)C(=O)[C@H](CCCCN)NC(=O)CCN(Cc1ccc(F)cc1)C(=O)[C@H](CCCCN)NC(=O)CCN(Cc1ccc(F)cc1)C(=O)[C@H](CCCCN)NC(=O)CCN(Cc1ccc(F)cc1)C(=O)[C@H](CCCCN)NC(=O)CCOCCOCCOCCOCCN)C(=O)N(CCC(=O)NCCOCCOCCOCCOCCC(N)=O)Cc1ccc(F)cc1 [Compound 5, H-sPEG4-[X]6-sPEG4-NH2]', 'A. baumannii NMI 3658/17', 16),
  ('NCCCC[C@H](NC(=O)CCN(Cc1ccc(F)cc1)C(=O)[C@H](CCCCN)NC(=O)CCN(Cc1ccc(F)cc1)C(=O)[C@H](CCCCN)NC(=O)CCOCCOCCOCCOCCOCCOCCNC(=O)CCN(Cc1ccc(F)cc1)C(=O)[C@H](CCCCN)NC(=O)CCN(Cc1ccc(F)cc1)C(=O)[C@H](CCCCN)NC(=O)CCN(Cc1ccc(F)cc1)C(=O)[C@@H](N)CCCCN)C(=O)N(CCC(N)=O)Cc1ccc(F)cc1 [Compound 10, H-[X]3-sPEG6-[X]3-NH2]', 'A. baumannii NMI 3658/17', 4);

====

Test system: A. baumannii ATCC 19606
Format: cell-based, Acinetobacter baumannii
Settings: ATCC 19606, 20 h
Procedure: MIC values of the peptidomimetics were evaluated by using the modified Hancock lab protocol in non-binding polystyrene microtiter plates. Bacterial suspensions of ~5 × 10^5 CFU/mL in Mueller-Hinton broth (Difco, Sparks, MD, USA) were prepared with Mg^2+ and Ca^2+ concentrations of 4 mg/L each. […] Following incubation for 20 h of the covered plates at 35 °C (±2 °C) with circular shaking at 180 rpm, the MICs were read.
PARAMETER: MIC, AB (µg/mL)

INSERT INTO results (molecule, assay_value) VALUES
  ('NCCCC[C@H](NC(=O)CCN(Cc1ccc(F)cc1)C(=O)[C@H](CCCCN)NC(=O)COCCOCCNC(=O)CCN(Cc1ccc(F)cc1)C(=O)[C@H](CCCCN)NC(=O)CCN(Cc1ccc(F)cc1)C(=O)[C@H](CCCCN)NC(=O)COCCOCCNC(=O)CCN(Cc1ccc(F)cc1)C(=O)[C@H](CCCCN)NC(=O)CCN(Cc1ccc(F)cc1)C(=O)[C@@H](N)CCCCN)C(=O)N(CCC(N)=O)Cc1ccc(F)cc1 [Compound 16, H-[X]2-sPEG2-[X]2-sPEG2-[X]2-NH2]', 8);

====

Assay: Estimation of log D values (n-octanol/PBS pH 7.4, LC-MS, log Dmax from LOQ)
Format: physicochemical
Settings: n-octanol/PBS pH 7.4, 25 °C; indicative threshold from LOQ in octanol phase
Catalogue of log Dmax readings, one per entry.
PARAMETER: log Dmax

INSERT INTO results (molecule, parameter, assay_value) VALUES
  ('NCCCC[C@H](NC(=O)CCN(Cc1ccc(F)cc1)C(=O)[C@H](CCCCN)NC(=O)COCCOCCNC(=O)CCN(Cc1ccc(F)cc1)C(=O)[C@H](CCCCN)NC(=O)CCN(Cc1ccc(F)cc1)C(=O)[C@H](CCCCN)NC(=O)COCCOCCNC(=O)CCN(Cc1ccc(F)cc1)C(=O)[C@H](CCCCN)NC(=O)CCN(Cc1ccc(F)cc1)C(=O)[C@@H](N)CCCCN)C(=O)N(CCC(N)=O)Cc1ccc(F)cc1 [Compound 16, H-[X]2-sPEG2-[X]2-sPEG2-[X]2-NH2]', 'log Dmax', '< −3.922'),
  ('NCCCC[C@H](NC(=O)CCN(Cc1ccc(F)cc1)C(=O)[C@H](CCCCN)NC(=O)CCN(Cc1ccc(F)cc1)C(=O)[C@H](CCCCN)NC(=O)CCOCCOCCOCCOCCNC(=O)CCN(Cc1ccc(F)cc1)C(=O)[C@H](CCCCN)NC(=O)CCN(Cc1ccc(F)cc1)C(=O)[C@H](CCCCN)NC(=O)CCN(Cc1ccc(F)cc1)C(=O)[C@@H](N)CCCCN)C(=O)N(CCC(N)=O)Cc1ccc(F)cc1 [Compound 9, H-[X]3-sPEG4-[X]3-NH2]', 'log Dmax', '< −3.627'),
  ('NCCCC[C@H](NC(=O)CCN(Cc1ccc(F)cc1)C(=O)[C@H](CCCCN)NC(=O)CCN(Cc1ccc(F)cc1)C(=O)[C@H](CCCCN)NC(=O)COCCN)C(=O)N(CCC(=O)NCCOCC(=O)N[C@@H](CCCCN)C(=O)N(CCC(=O)N[C@@H](CCCCN)C(=O)N(CCC(=O)N[C@@H](CCCCN)C(=O)N(CCC(=O)NCCOCC(N)=O)Cc1ccc(F)cc1)Cc1ccc(F)cc1)Cc1ccc(F)cc1)Cc1ccc(F)cc1 [Compound 11, H-sPEG1-[X]3-sPEG1-[X]3-sPEG1-NH2]', 'log Dmax', '< −2.876'),
  ('NCCCC[C@H](NC(=O)CCN(Cc1ccc(F)cc1)C(=O)[C@H](CCCCN)NC(=O)CCN(Cc1ccc(F)cc1)C(=O)[C@H](CCCCN)NC(=O)CCOCCOCCOCCOCCOCCOCCNC(=O)CCN(Cc1ccc(F)cc1)C(=O)[C@H](CCCCN)NC(=O)CCN(Cc1ccc(F)cc1)C(=O)[C@H](CCCCN)NC(=O)CCN(Cc1ccc(F)cc1)C(=O)[C@@H](N)CCCCN)C(=O)N(CCC(N)=O)Cc1ccc(F)cc1 [Compound 10, H-[X]3-sPEG6-[X]3-NH2]', 'log Dmax', '< −2.994'),
  ('NCCCC[C@H](NC(=O)CCN(Cc1ccc(F)cc1)C(=O)[C@H](CCCCN)NC(=O)CCN(Cc1ccc(F)cc1)C(=O)[C@H](CCCCN)NC(=O)COCCOCCOCCN)C(=O)N(CCC(=O)NCCOCCOCCOCC(=O)N[C@@H](CCCCN)C(=O)N(CCC(=O)N[C@@H](CCCCN)C(=O)N(CCC(=O)N[C@@H](CCCCN)C(=O)N(CCC(=O)NCCOCCOCCOCC(N)=O)Cc1ccc(F)cc1)Cc1ccc(F)cc1)Cc1ccc(F)cc1)Cc1ccc(F)cc1 [Compound 13, H-sPEG3-[X]3-sPEG3-[X]3-sPEG3-NH2]', 'log Dmax', '< −3.911');

====

Experiment: Hydrophobicity by retention in analytical RP-HPLC (% MeCN at peak elution)
Assay type: physicochemical
Conditions: Phenomenex Aeris Peptide XB-C18 column; gradient 0→60% B during 15 min
Catalogue of % MeCN at Elution, Aeris Peptide readings, one per entry.
PARAMETER: % MeCN at Elution, Aeris Peptide (% MeCN)

INSERT INTO measurements (compound, unit_annotation, assay_value) VALUES
  ('NCCCC[C@H](NC(=O)CCN(Cc1ccc(F)cc1)C(=O)[C@H](CCCCN)NC(=O)CCN(Cc1ccc(F)cc1)C(=O)[C@H](CCCCN)NC(=O)CCOCCOCCOCCOCCNC(=O)CCN(Cc1ccc(F)cc1)C(=O)[C@H](CCCCN)NC(=O)CCN(Cc1ccc(F)cc1)C(=O)[C@H](CCCCN)NC(=O)CCN(Cc1ccc(F)cc1)C(=O)[C@@H](N)CCCCN)C(=O)N(CCC(N)=O)Cc1ccc(F)cc1 [Compound 9, H-[X]3-sPEG4-[X]3-NH2]', '% MeCN', 39.8),
  ('NCCCC[C@H](NC(=O)CCN(Cc1ccc(F)cc1)C(=O)[C@H](CCCCN)NC(=O)CCN(Cc1ccc(F)cc1)C(=O)[C@H](CCCCN)NC(=O)CCN(Cc1ccc(F)cc1)C(=O)[C@H](CCCCN)NC(=O)CCN(Cc1ccc(F)cc1)C(=O)[C@H](CCCCN)NC(=O)CCN(Cc1ccc(F)cc1)C(=O)[C@H](CCCCN)NC(=O)CCOCCOCCOCCOCCN)C(=O)N(CCC(=O)NCCOCCOCCOCCOCCC(N)=O)Cc1ccc(F)cc1 [Compound 5, H-sPEG4-[X]6-sPEG4-NH2]', '% MeCN', 40.0),
  ('NCCCC[C@H](NC(=O)CCN(Cc1ccc(F)cc1)C(=O)[C@H](CCCCN)NC(=O)CCOCCOCCOCCOCCNC(=O)CCN(Cc1ccc(F)cc1)C(=O)[C@H](CCCCN)NC(=O)CCN(Cc1ccc(F)cc1)C(=O)[C@H](CCCCN)NC(=O)CCOCCOCCOCCOCCNC(=O)CCN(Cc1ccc(F)cc1)C(=O)[C@H](CCCCN)NC(=O)CCN(Cc1ccc(F)cc1)C(=O)[C@@H](N)CCCCN)C(=O)N(CCC(N)=O)Cc1ccc(F)cc1 [Compound 18, H-[X]2-sPEG4-[X]2-sPEG4-[X]2-NH2]', '% MeCN', 40.1);
